- System: Hepatitis C virus
- assay procedure: Inhibition of HCV 1b RB01 NS5B by SPA
- Design: species or system Hepatitis C virus subtype 1b
endpoint: IC50 (nM)

Below are worked cases with known answers.
>>> assay_value("COc1cc(C(=O)N2[C@@H](c3nccs3)[C@@H](CO)C[C@@]2(CC(C)C)C(=O)O)ccc1C(C)(C)C (racemic)")
730
>>> assay_value("CCOC[C@@H]1C[C@@](CC(C)C)(C(=O)O)N(C(=O)c2ccc(C(C)(C)C)c(OC)c2)[C@H]1c1nccs1 (racemic)")
3200
>>> assay_value("COC[C@H]1C[C@@](CC(C)C)(C(=O)O)N(C(=O)c2ccc(C(C)(C)C)c(OC)c2)[C@H]1c1nccs1")
440

I: COC[C@@H]1C[C@@](CC(C)C)(C(=O)O)N(C(=O)c2ccc(C(C)(C)C)c(OC)c2)[C@H]1c1nccs1
II: CCOC[C@H]1C[C@@](CC(C)C)(C(=O)O)N(C(=O)c2ccc(C(C)(C)C)c(OC)c2)[C@H]1c1nccs1
III: COc1cc(C(=O)N2[C@@H](c3nccs3)[C@H](CO)C[C@@]2(CC(C)C)C(=O)O)ccc1C(C)(C)C (racemic)
Exam item: Order these by IC50, descending, and give the full ranking. # list labels per requested ordering
Marked response: I, III, II
(I: 2300 nM, III: 1000 nM, II: 430 nM)

###

- assay procedure: Cytotoxicity against Vero cells after 4 days
- Format: cell-based
- stated conditions: chlorocebus sabaeus, read-out: CCID50
CC50 at 96 h values by entry
Answer format: numeric, µM implied, no suffix.

Below are worked cases with known answers.
>>> assay_value("COC[C@@H]1C[C@@](CC(C)C)(C(=O)O)N(C(=O)c2ccc(C(C)(C)C)c(OC)c2)[C@H]1c1nccs1")
265
>>> assay_value("COc1cc(C(=O)N2[C@@H](c3nccs3)[C@H](CO)C[C@@]2(CC(C)C)C(=O)O)ccc1C(C)(C)C (racemic)")
482
>>> assay_value("COc1cc(C(=O)N2[C@@H](c3nccs3)[C@@H](CO)C[C@@]2(CC(C)C)C(=O)O)ccc1C(C)(C)C (racemic)")
358

# ---- query molecule ----
Exam item: Give its CC50 at 96 h value. Item: CCOC[C@@H]1C[C@@](CC(C)C)(C(=O)O)N(C(=O)c2ccc(C(C)(C)C)c(OC)c2)[C@H]1c1nccs1 (racemic)
Marked response: 214

###

- assay procedure: Plasma clearance in Sprague-Dawley rat at 1 mg/kg, iv
- Type: ADME, organism-based
- Design: dose 1 mg/kg, route intravenous
endpoint: clearance (L/h/kg)

P: CC(C)C[C@@]1(C(=O)O)C[C@H](C(N)=O)[C@H](c2nccs2)N1C(=O)c1ccc(C(C)(C)C)c(Cl)c1
Q: COC[C@H]1C[C@@](CC(C)C)(C(=O)O)N(C(=O)c2ccc(C(C)(C)C)c(OC)c2)[C@H]1c1nccs1
R: COC[C@@H]1C[C@@](CC(C)C)(C(=O)O)N(C(=O)c2ccc(C(C)(C)C)c(OC)c2)[C@H]1c1nccs1
Exam item: Sort the entries above by clearance, smallest first. # list labels per requested ordering
Marked response: Q, R, P
(Q: 0.3 L/h/kg, R: 0.72 L/h/kg, P: 1.74 L/h/kg)

P: CC(C)C[C@@]1(C(=O)O)C[C@H](C(N)=O)[C@H](c2nccs2)N1C(=O)c1ccc(C(C)(C)C)cc1
Q: CCOC[C@H]1C[C@@](CC(C)C)(C(=O)O)N(C(=O)c2ccc(C(C)(C)C)c(OC)c2)[C@H]1c1nccs1
Exam item: Pick one: P or Q . Which has the bigger clearance number? Identify your selection by its label.
Marked response: P

a: COc1cc(C(=O)N2[C@@H](c3nccs3)[C@@H](C(N)=O)C[C@@]2(CC(C)C)C(=O)O)ccc1C(C)(C)C
b: CC(C)C[C@@]1(C(=O)O)C[C@H](C(N)=O)[C@H](c2nccs2)N1C(=O)c1ccc(C(C)(C)C)c(Br)c1
Exam item: Pick one: a or b . Which has the bigger clearance number? Identify your selection by its label.
Marked response: a
(a: 2.22 L/h/kg, b: 1.44 L/h/kg)
